Values from paper PMC4488747

# measured.on: P-gp (Mus musculus, UniProt P21447)
# Construct: from tissue; host or cells: whole living mice (in vivo, intravenous digoxin 1 mg/kg after NC-siRNA or mdr1a-1 siRNA)
# Sequence (P21447 whole entry): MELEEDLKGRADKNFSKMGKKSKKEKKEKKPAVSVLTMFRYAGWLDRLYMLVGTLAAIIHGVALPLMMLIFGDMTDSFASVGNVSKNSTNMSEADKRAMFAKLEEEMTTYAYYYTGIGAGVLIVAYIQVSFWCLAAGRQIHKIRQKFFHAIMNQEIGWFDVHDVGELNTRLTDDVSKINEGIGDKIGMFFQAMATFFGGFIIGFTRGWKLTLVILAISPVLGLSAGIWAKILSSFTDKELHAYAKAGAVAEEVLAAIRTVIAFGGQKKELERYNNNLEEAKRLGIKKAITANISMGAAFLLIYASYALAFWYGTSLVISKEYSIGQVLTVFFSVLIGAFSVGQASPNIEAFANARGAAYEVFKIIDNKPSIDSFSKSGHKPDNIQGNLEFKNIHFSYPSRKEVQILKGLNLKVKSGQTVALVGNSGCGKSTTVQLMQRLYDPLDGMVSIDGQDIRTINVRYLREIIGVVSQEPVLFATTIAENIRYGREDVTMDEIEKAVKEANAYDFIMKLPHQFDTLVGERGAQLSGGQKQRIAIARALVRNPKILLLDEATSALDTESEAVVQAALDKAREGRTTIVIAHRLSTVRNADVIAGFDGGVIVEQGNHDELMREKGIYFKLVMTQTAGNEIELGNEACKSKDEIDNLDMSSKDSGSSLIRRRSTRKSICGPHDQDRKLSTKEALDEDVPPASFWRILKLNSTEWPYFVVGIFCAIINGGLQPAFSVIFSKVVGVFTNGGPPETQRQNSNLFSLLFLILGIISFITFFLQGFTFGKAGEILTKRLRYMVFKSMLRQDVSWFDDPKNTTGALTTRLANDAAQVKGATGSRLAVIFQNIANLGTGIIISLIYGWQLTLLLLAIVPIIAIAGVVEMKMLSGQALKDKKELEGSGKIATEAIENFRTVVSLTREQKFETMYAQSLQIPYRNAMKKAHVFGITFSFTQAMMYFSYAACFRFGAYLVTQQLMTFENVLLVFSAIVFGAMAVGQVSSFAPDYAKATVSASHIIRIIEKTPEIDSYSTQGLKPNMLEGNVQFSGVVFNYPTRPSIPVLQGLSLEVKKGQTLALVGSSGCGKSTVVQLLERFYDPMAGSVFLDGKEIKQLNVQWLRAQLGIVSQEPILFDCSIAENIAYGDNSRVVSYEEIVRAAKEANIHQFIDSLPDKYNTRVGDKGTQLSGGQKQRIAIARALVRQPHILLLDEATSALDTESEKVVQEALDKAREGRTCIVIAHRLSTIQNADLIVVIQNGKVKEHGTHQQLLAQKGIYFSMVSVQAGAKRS
# assay.name: P-gp function in knockdown mice assessed by digoxin plasma pharmacokinetics
# Format: in vivo
# test.settings: iv, 1 mg/kg, digoxin 1 mg/kg injection, mdr1a-1 siRNA iv 2 days prior
measure.name: AUC(0-t) (µg·h/mL)

INSERT INTO measurements (chemical_smiles, reported) VALUES
  ('C[C@H]1O[C@@H](O[C@H]2[C@@H](O)C[C@H](O[C@H]3[C@@H](O)C[C@H](O[C@H]4CC[C@@]5(C)[C@H](CC[C@@H]6[C@@H]5C[C@@H](O)[C@]5(C)[C@@H](C7=CC(=O)OC7)CC[C@]65O)C4)O[C@@H]3C)O[C@@H]2C)C[C@H](O)[C@@H]1O', 8.77);
